Assayed target: Protein Kinase A (Bos taurus, UniProt P00517)
Construct: partially purified from calf heart; from tissue; host or cells: calf heart (crude enzyme, partially purified by the method of Kuo et al.)
Procedure text: Protein kinase A inhibitory activity (method of Kuo et al.)
Assay type: biochemical, calf
Condition context: crude enzyme partially purified from calf heart; Histone Type IIS, C-AMP, pH 6.8; read-out: IC50 Protein Kinase A
pIC50: −log10 of the molar value.
Assay metric: pIC50

// field: pIC50; key: COc1c(CC(C)OC(=O)Oc2ccc(O)cc2)c2c3c(CC(C)OC(=O)c4ccccc4)c(OC)c(=O)c4c(O)cc(OC)c(c5c(OC)cc(O)c(c1=O)c52)c43 (stereo not shown) [UCN-1028C] ; value = < 4.30

----------
Assayed target: Protein Kinase A (Bos taurus, UniProt P00517)
Construct: partially purified from calf heart; from tissue; host or cells: calf heart (crude enzyme, partially purified by the method of Kuo et al.)
Procedure text: Protein kinase A inhibitory activity (method of Kuo et al.)
Format: biochemical, calf
Assay metric: pIC50
Answer as the number alone; pIC50 is minus log10 of concentration in mol/L.

// field: pIC50; key: COc1c(CC(C)O)c2c3c(CC(C)O)c(OC)c(=O)c4c(O)cc(OC)c(c5c(OC)cc(O)c(c1=O)c52)c43 (centres unmarked) [Phleichrome, reference compound] ; value = 4.22
